meta.source: patent US5430032A

Hi there, I'd appreciate the recorded pIC50 for every entry that follows.
Test system: platelet-activating factor (PAF)
test: Platelet aggregation assay (PAF-induced aggregation, human platelet-rich plasma)
Format: cell-based
measurementConditions: PAF-induced aggregation of human platelets, in vitro, read-out: PAF Antagonism (in vitro) IC50
Answers are plain numbers, as −log10 of the molar value.

Below are worked cases with known answers.
O=C(c1cc[n+]([O-])cc1)N1CCN(C2c3ccc(Cl)cc3OCc3cccnc32)CC1 (centres unmarked) [Compound 4] :: 6.70
CC(=O)N1CCC(=C2c3ccc(Cl)cc3CCc3cccnc32)CC1 [Compound 1] :: 6.22
O=C(c1cc[n+]([O-])cc1)N1CCN(C2c3ccc(Cl)cc3SCc3cccnc32)CC1 (centres unmarked) [Compound 5] :: 6.52
O=C(c1cc[n+]([O-])cc1)N1CCC(=C2c3ccc(Cl)cc3SCc3cccnc32)CC1 [Compound 3] :: 7.40

Continue with the next compound.
Q: Data request, read-out pIC50, for O=C(c1cc[n+]([O-])cc1)N1CCC(=C2c3ccc(Cl)cc3CCc3cccnc32)CC1 [Compound 2]
A: 6.70
